# assay_system: casein kinase 1δ (Homo sapiens (Human), UniProt P48730)
# Sequence (P48730 whole entry): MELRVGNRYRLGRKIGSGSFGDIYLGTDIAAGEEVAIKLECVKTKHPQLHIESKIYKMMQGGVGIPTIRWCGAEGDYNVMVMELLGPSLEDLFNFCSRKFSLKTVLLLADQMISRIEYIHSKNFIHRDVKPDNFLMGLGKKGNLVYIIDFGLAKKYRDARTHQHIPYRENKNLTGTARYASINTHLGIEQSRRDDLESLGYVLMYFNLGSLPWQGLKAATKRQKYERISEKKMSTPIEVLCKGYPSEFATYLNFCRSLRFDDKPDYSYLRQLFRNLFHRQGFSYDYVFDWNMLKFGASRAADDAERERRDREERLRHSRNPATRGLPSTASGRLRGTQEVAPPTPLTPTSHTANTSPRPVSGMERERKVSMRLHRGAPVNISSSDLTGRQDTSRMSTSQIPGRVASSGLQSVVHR
# protocol: Kinase inhibition assay (HotSpot assay, Reaction Biology Corp)
# Format: biochemical
# particulars: casein kinase 1δ; 10 μM ATP; 10-dose IC50 mode, 3-fold serial dilution starting at 10 μM
endpoint: pIC50

Completed entries (count: 3):
- smiles_input: "C[C@H](Nc1nccc(-c2c(-c3ccc(F)cc3)ncn2C2CCCCC2)n1)C1CCCCC1"
  pIC50: 6.57
- smiles_input: "C[C@@H](Nc1nccc(-c2c(-c3ccc(F)cc3)ncn2C2CCCCC2)n1)C1CCCCC1"
  pIC50: 7.46
- smiles_input: "CC(C)(F)n1cnc(-c2ccc(F)cc2)c1-c1ccnc(NCC2CCC(F)(F)CC2)n1"
  pIC50: 7.42

1: Fc1ccc(-c2ncn(C3CCCCC3)c2-c2ccnc(NCc3ccccn3)n2)cc1
2: Fc1ccc(-c2ncn(C3CCCCC3)c2-c2ccnc(NCc3ccc(-c4ccccc4)cc3)n2)cc1
# input Could you tell me which of 1 and 2 has the lower pIC50 reading? In your reply, give the label of the chosen option.
# output 2

* * *

# assay_system: casein kinase 1δ (Homo sapiens (Human), UniProt P48730)
# protocol: Kinase inhibition assay (HotSpot assay, Reaction Biology Corp)
# Format: biochemical
# particulars: casein kinase 1δ; 10 μM ATP; 10-dose IC50 mode, 3-fold serial dilution starting at 10 μM
endpoint: pIC50

- smiles_input: "Fc1ccc(-c2ncn(C3CCCCC3)c2-c2ccnc(NCCCc3ccccc3)n2)cc1"
  measurement: 8.59
- smiles_input: "Fc1ccc(-c2ncn(C3CCCCC3)c2-c2ccnc(NCC3CCCCC3)n2)cc1"
  measurement: 7.91
- smiles_input: "Fc1ccc(-c2ncn(C3CCCCC3)c2-c2ccnc(NCC3CCC(F)(F)CC3)n2)cc1"
  measurement: 8.53
- smiles_input: "Fc1ccc(-c2ncn(C3CCCCC3)c2-c2ccnc(NCC3CCCC3)n2)cc1"
  measurement: 8.15
- smiles_input: "Fc1ccc(-c2ncn(C3CCCCC3)c2-c2ccnc(NCC3CCOCC3)n2)cc1"
  measurement: 8.77

* * *

pIC50: −log10 of the molar value.
Each entry below carries its measured pIC50, system: UniProt:P48730.
endpoint: pIC50

Here is how some molecules turned out for pIC50.
- smiles_input: "Fc1ccc(-c2ncn(C3CCCCC3)c2-c2ccnc(NCC3CCC(F)(F)CC3)n2)cc1"
  pIC50: 8.53
- smiles_input: "Fc1ccc(-c2ncn(C3CCCCC3)c2-c2ccnc(NCC3CCOCC3)n2)cc1"
  pIC50: 8.77

a: Fc1ccc(-c2ncn(C3CCCCC3)c2-c2ccnc(NCCCc3ccccc3)n2)cc1
b: Fc1ccc(-c2ncn(C3CCCCC3)c2-c2ccnc(NCC3CCCC3)n2)cc1
c: C[C@@H](Nc1nccc(-c2c(-c3ccc(F)cc3)ncn2C2CCCCC2)n1)C1CCCCC1
# input Would you mind ranking these molecules by ascending pIC50? To answer, write out the labels according to the requested order.
# output c, b, a
(c: 7.46, b: 8.15, a: 8.60)
